Molecular target: human TYK2 (JH2domain-pseudokinase) (Homo sapiens (Human), UniProt P29597)
Sequence (P29597 556-888): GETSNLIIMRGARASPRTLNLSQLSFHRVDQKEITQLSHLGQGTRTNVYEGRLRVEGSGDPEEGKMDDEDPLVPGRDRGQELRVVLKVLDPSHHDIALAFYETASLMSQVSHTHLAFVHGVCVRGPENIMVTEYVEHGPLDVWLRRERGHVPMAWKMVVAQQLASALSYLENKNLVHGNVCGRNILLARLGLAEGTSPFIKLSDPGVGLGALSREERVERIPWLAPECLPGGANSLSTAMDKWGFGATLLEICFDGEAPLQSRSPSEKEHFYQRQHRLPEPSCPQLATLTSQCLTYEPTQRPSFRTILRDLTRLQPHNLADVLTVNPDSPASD
Experiment: TYK2 JH2 Domain Binding Assay (KINOMEscan)
Protocol: Binding constants for compounds of the present invention against the JH2 domain were determined by the following protocol for a KINOMEscan® assay (DiscoveRx). […] The TYK2 (JH2domain-pseudokinase) fusion protein was labeled with a chimeric double-stranded DNA tag containing the NFkB binding site (5′-[…]-3′) fused to an amplicon for qPCR readout, which was added directly to the expression extract (the final concentration of DNA-tag in the binding reaction is 0.1 nM). […]
Please provide measured Kd for the entries that follow.

>  <molecule>
CNc1cc(Nc2cccnc2OC(CO)CO)nc2c(C(=O)NC3CC3)cnn12 [I-199]

>  <valueType>
Kd

>  <obsValue>
0.2 to 1 nM

$$$$

# batch: return Kd for each of the 4 molecules below
1. CNc1cc(-c2cn(C(C)C)c3ncc(C)cc23)nc2c(C(=O)NC3CC3)cnn12 [I-252]
2. CNc1cc(Nc2cccn([C@H]3[C@@H]4COC[C@@H]43)c2=O)nc2c(C(=O)N[C@@H]3C[C@@H]3F)cnn12 [I-811]
3. CNc1cc(Nc2cccn3ccnc23)nc2c(C(=O)N[C@@H]3CC[C@H]3OC)cnn12 [I-1133]
4. CNc1cc(Nc2cccn([C@@H]3CCCN(CCF)C3)c2=O)nc2c(C(=O)N[C@@H]3C[C@@H]3F)cnn12 [I-901]

Key:
["1 to 10 nM", "< 0.2 nM", "1 to 10 nM", "0.2 to 1 nM"]

# batch: return Kd for each of the 3 molecules below
1. CNc1cc(Nc2cccn(C(C)C)c2=O)nc2c(C(=O)N[C@H]3CC[C@@]3(C)O)cnn12 [I-1371]
2. CNc1cc(Nc2cccc([C@@H]3CCCCO3)n2)nc2c(C(=O)N[C@@H]3CC[C@@H]3O)cnn12 [I-610]
3. CNc1cc(Nc2cccn3ccnc23)nc2c(C(=O)N[C@@H]3C[C@@H]3F)cnn12 [I-892]

Key:
1. < 0.2 nM
2. < 0.2 nM
3. < 0.2 nM

====

Please provide measured pKd for the entries that follow.
target: human TYK2 (JH2domain-pseudokinase) (Homo sapiens (Human)); assay: TYK2 JH2 Domain Binding Assay (KINOMEscan)
pKd: −log10 of the molar value.

>  <molecule>
CNc1cc(Nc2cccc(C3CCCOC3)n2)nc2c(C(=O)NC3CC3)cnn12 (centres unmarked)

>  <obsValue>
9.00 to 9.70

$$$$
>  <molecule>
CNc1cc(-c2cn(C(C)C)c3ncccc23)nc2c(C(=O)N[C@H]3C[C@H](O)C3)cnn12

>  <obsValue>
> 9.70

$$$$
>  <molecule>
[2H]C([2H])([2H])Oc1ncccc1Nc1cc(NC)n2ncc(C(=O)NC(C)(C)C#N)c2n1

>  <obsValue>
9.00 to 9.70

$$$$
>  <molecule>
CNc1cc(Nc2cccc(N3CC4(CCO4)C3)n2)nc2c(C(=O)N[C@@H]3CC[C@@H]3O)cnn12

>  <obsValue>
8.00 to 9.00

$$$$
>  <molecule>
CNc1cc(Nc2cccn(C[C@@H]3CCCCO3)c2=O)nc2c(C(=O)N[C@@H]3C[C@@H]3F)cnn12

>  <obsValue>
> 9.70

$$$$

# batch: return pKd for each of the 2 molecules below
1. CNc1cc(Nc2cccn([C@@H]3CCOC3)c2=O)nc2c(C(=O)NC3CC3)cnn12
2. CNc1cc(Nc2cc(Cl)cnc2O[C@H]2C[C@H](OC)C2)nc2c(C(N)=O)cnn12

Key:
["9.00 to 9.70", "9.00 to 9.70"]

Exercise: Using the record for CNc1cc(Nc2cccc(-c3nccs3)c2Cl)nc2c(C(N)=O)cnn12 , state its measured pKd.
Key: 9.00 to 9.70
